For each entry below, report its kon value.
Target: T1, human tissue factor pathway inhibitor (TFPI) (human, UniProt P10646 29-304, limits assumed)
T1 construct: bought; also called hTFPI; human TFPI
T1 sequence (looked up): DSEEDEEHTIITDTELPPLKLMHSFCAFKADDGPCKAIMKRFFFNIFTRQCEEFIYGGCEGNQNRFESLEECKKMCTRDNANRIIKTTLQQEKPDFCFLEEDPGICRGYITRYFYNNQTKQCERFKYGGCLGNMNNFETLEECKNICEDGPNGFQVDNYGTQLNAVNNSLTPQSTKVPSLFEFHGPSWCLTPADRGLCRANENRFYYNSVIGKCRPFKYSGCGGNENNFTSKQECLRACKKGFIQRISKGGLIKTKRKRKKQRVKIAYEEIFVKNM
Test: SPR, TFPI immobilized
Answers are plain numbers, in M⁻¹ s⁻¹.

Recorded kon, per entry:
1) 2A8-143 (HC S35D+S55R+K99L/LC Y48F+N51V+D91L+V96W) (Fab, V domains shown) VH: QVQLVESGGGLVQPGGSLRLSCAASGFTFRSYGMDWVRQAPGKGLEWVSSIRGSRSSTYYADSVKGRFTISRDNSKNTLYLQMNSLRAEDTAVYYCARLYRYWFDYWGQGTLVTVSS VL: DIELTQPPSVSVAPGQTARISCSGDNLRNYYAHWYQQKPGQAPVVVIFYDVNRPSGIPERFSGSNSGNTATLTISGTQAEDEADYYCQSWLDGVPWFGGGTKLTVLG; 2.88e+06
2) 2A8-127 (HC S35D+K99L/LC Y48F+N51V+G56D+V96W) (Fab, V domains shown) VH: QVQLVESGGGLVQPGGSLRLSCAASGFTFRSYGMDWVRQAPGKGLEWVSSIRGSSSSTYYADSVKGRFTISRDNSKNTLYLQMNSLRAEDTAVYYCARLYRYWFDYWGQGTLVTVSS VL: DIELTQPPSVSVAPGQTARISCSGDNLRNYYAHWYQQKPGQAPVVVIFYDVNRPSDIPERFSGSNSGNTATLTISGTQAEDEADYYCQSWDDGVPWFGGGTKLTVLG; 1.68e+06

Note to self: kon recorded for 2A8-216 (HC S31V+I51D+S55R+K99V/LC Y48F+D91L+V96W) (Fab, V domains shown) VH: QVQLVESGGGLVQPGGSLRLSCAASGFTFRVYGMSWVRQAPGKGLEWVSSDRGSRSSTYYADSVKGRFTISRDNSKNTLYLQMNSLRAEDTAVYYCARVYRYWFDYWGQGTLVTVSS VL: DIELTQPPSVSVAPGQTARISCSGDNLRNYYAHWYQQKPGQAPVVVIFYDNNRPSGIPERFSGSNSGNTATLTISGTQAEDEADYYCQSWLDGVPWFGGGTKLTVLG was 3.29e+06
